Biological target: HPK1
Assay: HPK1 Lantha Binding Assay ("Lanth")
Conditions: Table B1-1, read-out: HPK1 Ki (μM) (Lanth)
Procedure: HPK1 Lantha Binding Assay (“Lanth”) […] For the binding assay, 4 ul 2×HPK1 and Eu-anti-GST antibody were added to each well of the assay plate using a Multidrop reagent dispenser. […] The results of the assay were read using an Envision plate reader with the following parameters: TR_FRET, 340ex/615 and 665em; 100 usec Delay; and 200 usec integration. […]
Recorded Ki values for a group of compounds are listed next.
Quick reminder: number only, in nM, skip the unit.

The examples below pair each entry with its known result.
IN: Identify measured Ki corresponding to "Cc1ccncc1-c1nc(N)c2cnc(NC(=O)[C@@H]3C[C@H]3c3cn[nH]c3)cc2c1F"
OUT: 6.01

IN: Determine from records and report Ki for "COCCN1CC(NC(=O)Nc2cc3cc(-c4cnccc4C)nc(N)c3cn2)C1"
OUT: 2.5

IN: Answer with reported Ki of "COC(C)(C)[C@@H]1C[C@H]1C(=O)Nc1cc2cc(-c3cnccc3C)nc(N)c2cn1"
OUT: 5.28

Others:
IN: Output Ki of "Cc1ccncc1-c1cc2cc(NC(=O)[C@H]3C[C@@H]3CC#N)ncc2c(N)n1"
OUT: 0.135

IN: Return reported Ki. Input compound: "Cn1cc([C@@H]2C[C@H]2C(=O)Nc2cc3cc(-c4c(F)cccc4Cl)nc(N)c3cn2)cn1"
OUT: 0.65

IN: For "Cn1cc(-c2cc3cc(NC(=O)[C@@H]4C[C@@H]4F)ncc3c(N)n2)cn1" , write its Ki.
OUT: 2.89

IN: # return recorded Ki for entry "N#CC[C@H]1C[C@@H]1C(=O)Nc1cc2cc(-c3c(Cl)cccc3Cl)nc(N)c2cn1"
OUT: 0.0675

IN: Return Ki (reported value) for this compound: "Cc1ccncc1-c1cc2cc(NC(=O)[C@H]3CC[C@@H]3C)ncc2c(N)n1"
OUT: 7.82

IN: Fill in reported Ki for this entry: "COC(C)(C)[C@H]1C[C@@H]1C(=O)Nc1cc2cc(-c3cnccc3C)nc(N)c2cn1"
OUT: 47

IN: Look up Ki of "Cc1ccncc1-c1cc2cc(NC(=O)[C@@H]3C[C@]34CCNC(=O)C4)ncc2c(N)n1" and report it.
OUT: 12.2

IN: Please look at this compound and report its Ki: "Cc1ccc(O)cc1-c1cc2cc(NC(=O)[C@H]3C[C@@H]3c3cnn(C)c3)ncc2c(N)n1"
OUT: 1.82
